From: patent US7365082B2

Tested on: tobacco budworm (Heliothis virescens [Fabricius])
Experiment: surface-treated diet test against tobacco budworm
Type: in vivo
Conditions: 0.25 millimoles of candidate insecticide on the surface of the diet; second instar larvae; five-day exposure; compared to the total number of insects infested
Catalogue of Percent Mortality readings, one per entry.
MEASURED_QUANTITY: Percent Mortality (%)

compound="Cn1nnc(-c2ccc(CN3CCC(C(=NNC(=O)c4ccc(Cl)cc4)c4ccc(Cl)cc4)CC3)cc2)n1 [Compound 138]" test_target="tobacco budworm (Heliothis virescens [Fabricius])" value_measured=0
compound="CCn1nnc(-c2ccc(CN3CCC(C(=NNc4ccccn4)c4ccc(OC(F)(F)F)cc4)CC3)cc2)n1 [Compound 92]" test_target="tobacco budworm (Heliothis virescens [Fabricius])" value_measured=0
compound="CCn1nnc(-c2ccc(C[N+]3([O-])CCN(C(c4ccc(C(F)(F)F)cc4)c4ccc(C(F)(F)F)cc4)CC3)cc2)n1 [Compound 175]" test_target="tobacco budworm (Heliothis virescens [Fabricius])" value_measured=100
compound="CCn1nnc(-c2ccc(CN3CCC(C(=NNc4ccc(OC(F)(F)F)cc4)c4ccc(OC(F)(F)F)cc4)CC3)cc2)n1 [Compound 124]" test_target="tobacco budworm (Heliothis virescens [Fabricius])" value_measured=100
compound="CCn1nnc(-c2ccc(CN3CCC(C(=NNc4ccc([N+](=O)[O-])cc4)c4ccc(OC(F)(F)F)cc4)CC3)cc2)n1 [Compound 126]" test_target="tobacco budworm (Heliothis virescens [Fabricius])" value_measured=100
compound="CCn1nnc(-c2ccc(CN3CCC(C(=NNc4ccc(C(F)(F)F)cc4)c4ccc(OC(F)(F)F)cc4)CC3)cc2)n1 [Compound 122]" test_target="tobacco budworm (Heliothis virescens [Fabricius])" value_measured=100
compound="CCn1nnc(-c2ccc(CN3CCC(C(=NNS(=O)(=O)c4ccc(C(F)(F)F)cc4)c4ccc(OC(F)(F)F)cc4)CC3)cc2)n1 [Compound 129]" test_target="tobacco budworm (Heliothis virescens [Fabricius])" value_measured=100
compound="CCCOc1ccc(CN2CCC(C(=O)c3ccc(OC(F)(F)F)cc3)CC2)cc1 [Compound 43]" test_target="tobacco budworm (Heliothis virescens [Fabricius])" value_measured=100
compound="CCCOc1ccc(CN2CCC(C(=NNc3ccc(OC(F)(F)F)cc3)c3ccc(OC(F)(F)F)cc3)CC2)cc1 [Compound 97]" test_target="tobacco budworm (Heliothis virescens [Fabricius])" value_measured=100
compound="CCn1nnc(-c2ccc(CN3CCC(C(=NNc4ccc(OC(F)(F)F)cc4)c4ccc(C(F)(F)F)cc4)CC3)cc2)n1 [Compound 119]" test_target="tobacco budworm (Heliothis virescens [Fabricius])" value_measured=100
compound="[O-][N+]1(Cc2ccc(Oc3ccccc3F)cc2)CCN(C(c2ccc(OC(F)(F)F)cc2)c2ccc(OC(F)(F)F)cc2)CC1 [Compound 172]" test_target="tobacco budworm (Heliothis virescens [Fabricius])" value_measured=100
compound="FC(F)(F)c1ccc(C(c2ccc(Cl)cc2)N2CCN(Cc3ccc(Oc4ncccn4)cc3)CC2)cc1 (centres unmarked) [Compound 168]" test_target="tobacco budworm (Heliothis virescens [Fabricius])" value_measured=100
compound="O=C(NN=C(c1ccc(OC(F)(F)F)cc1)C1CCN(Cc2ccc(Oc3ccccn3)cc2)CC1)c1ccc(C(F)(F)F)cc1 [Compound 132]" test_target="tobacco budworm (Heliothis virescens [Fabricius])" value_measured=83
compound="[O-][N+]1(Cc2ccc(Oc3ncccn3)cc2)CCN(C(c2ccc(C(F)(F)F)cc2)c2ccc(C(F)(F)F)cc2)CC1 [Compound 180]" test_target="tobacco budworm (Heliothis virescens [Fabricius])" value_measured=100
compound="[O-][N+]1(Cc2ccc(Oc3ncccn3)cc2)CCN(C(c2ccc(Cl)cc2)c2ccc(C(F)(F)F)cc2)CC1 (centres unmarked) [Compound 179]" test_target="tobacco budworm (Heliothis virescens [Fabricius])" value_measured=100
compound="Cn1nnc(-c2ccc(CN3CCC(C(=NNC(=O)c4ccccc4Cl)c4ccc(OC(F)(F)F)cc4)CC3)cc2)n1 [Compound 136]" test_target="tobacco budworm (Heliothis virescens [Fabricius])" value_measured=76
compound="[O-][N+]1(Cc2ccc(Oc3ccccn3)cc2)CCN(C(c2ccc(Cl)cc2)c2ccc(C(F)(F)F)cc2)CC1 (centres unmarked) [Compound 176]" test_target="tobacco budworm (Heliothis virescens [Fabricius])" value_measured=100
compound="Cn1nnc(-c2ccc(CN3CCC(C(=NNC(=O)c4cccc(Cl)c4)c4ccc(OC(F)(F)F)cc4)CC3)cc2)n1 [Compound 137]" test_target="tobacco budworm (Heliothis virescens [Fabricius])" value_measured=100
compound="Cn1nnc(-c2ccc(CN3CCC(C(=NNC(=O)c4ccc(Br)cc4)c4ccc(OC(F)(F)F)cc4)CC3)cc2)n1 [Compound 140]" test_target="tobacco budworm (Heliothis virescens [Fabricius])" value_measured=100
compound="CCn1nnc(-c2ccc(CN3CCC(C(=NNS(=O)(=O)c4ccc(OC(F)(F)F)cc4)c4ccc(OC(F)(F)F)cc4)CC3)cc2)n1 [Compound 130]" test_target="tobacco budworm (Heliothis virescens [Fabricius])" value_measured=100
compound="O=C(c1ccc(OC(F)(F)F)cc1)C1CCN(Cc2ccc(F)cc2)CC1 [Compound 27]" test_target="tobacco budworm (Heliothis virescens [Fabricius])" value_measured=0
compound="O=C(c1ccc(C(F)(F)F)cc1)C1CCNCC1 [Compound 3]" test_target="tobacco budworm (Heliothis virescens [Fabricius])" value_measured=100
compound="Cn1nnc(-c2ccc(CN3CCC(C(=NNC(=O)c4ccc(F)cc4)c4ccc(OC(F)(F)F)cc4)CC3)cc2)n1 [Compound 143]" test_target="tobacco budworm (Heliothis virescens [Fabricius])" value_measured=17
compound="CCn1nnc(-c2ccc(CN3CCC(C(=NNc4ccc(C(C)C)cc4)c4ccc(OC(F)(F)F)cc4)CC3)cc2)n1 [Compound 114]" test_target="tobacco budworm (Heliothis virescens [Fabricius])" value_measured=100
compound="CCn1nnc(-c2ccc(CN3CCC(C(=NNCc4ccc(OC(F)(F)F)cc4)c4ccc(OC(F)(F)F)cc4)CC3)cc2)n1 [Compound 128]" test_target="tobacco budworm (Heliothis virescens [Fabricius])" value_measured=0
compound="COc1ccc(C(=O)NN=C(c2ccc(OC(F)(F)F)cc2)C2CCN(Cc3ccc(-c4nnn(C)n4)cc3)CC2)cc1 [Compound 146]" test_target="tobacco budworm (Heliothis virescens [Fabricius])" value_measured=100

====

Tested on: tobacco budworm (Heliothis virescens [Fabricius])
Assay: surface-treated diet test against tobacco budworm
Format: in vivo
Settings: 0.25 millimoles of candidate insecticide on the surface of the diet; second instar larvae; five-day exposure; inhibition of insect weight relative to untreated controls
MEASURED_QUANTITY: Percent Growth Inhibition (%)

sample_smiles=[O-][N+]1(Cc2ccc(Oc3ncccn3)cc2)CCN(C(c2ccc(Cl)cc2)c2ccc(Cl)cc2)CC1 units_label=% value_measured=100
sample_smiles=Cn1nnc(-c2ccc(CN3CCC(C(=NNC(=O)c4ccccc4Cl)c4ccc(OC(F)(F)F)cc4)CC3)cc2)n1 units_label=% value_measured=0
sample_smiles=CCn1nnc(-c2ccc(CN3CCC(C(=NNc4ccc(C)cc4)c4ccc(OC(F)(F)F)cc4)CC3)cc2)n1 units_label=% value_measured=100
sample_smiles=CCn1nnc(-c2ccc(CN3CCC(/C(=N\NC(=O)c4ccc(OC(F)(F)F)cc4)c4ccc(OC(F)(F)F)cc4)CC3)cc2)n1 units_label=% value_measured=96
sample_smiles=CCn1nnc(-c2ccc(CN3CCC(C(=NNc4ccc(C(C)C)cc4)c4ccc(OC(F)(F)F)cc4)CC3)cc2)n1 units_label=% value_measured=100
sample_smiles=CC(C)NN=C(c1ccc(C(F)(F)F)cc1)C1CCN(Cc2ccc(-c3nnn(C)n3)cc2)CC1 units_label=% value_measured=79
sample_smiles=[O-][N+]1(Cc2ccc(Oc3ccccc3F)cc2)CCN(C(c2ccc(OC(F)(F)F)cc2)c2ccc(OC(F)(F)F)cc2)CC1 units_label=% value_measured=100
sample_smiles=CCn1nnc(-c2ccc(CN3CCC(C(=NNc4ccc(S(N)(=O)=O)cc4)c4ccc(OC(F)(F)F)cc4)CC3)cc2)n1 units_label=% value_measured=100
sample_smiles=O=C(c1ccc(OC(F)(F)F)cc1)C1CCN(Cc2ccc(F)cc2)CC1 units_label=% value_measured=97
sample_smiles=CCn1nnc(-c2ccc(CN3CCC(C(=NNc4ccccc4C(F)(F)F)c4ccc(OC(F)(F)F)cc4)CC3)cc2)n1 units_label=% value_measured=40
